These entries and their values trace back to paper PMC8769072.

Biological target: KEAP1 Kelch (kelch-like ECH-associated protein 1, Kelch domain) (human) (UniProt Q14145)
Sequence (Q14145 whole entry, the tested form may be a part): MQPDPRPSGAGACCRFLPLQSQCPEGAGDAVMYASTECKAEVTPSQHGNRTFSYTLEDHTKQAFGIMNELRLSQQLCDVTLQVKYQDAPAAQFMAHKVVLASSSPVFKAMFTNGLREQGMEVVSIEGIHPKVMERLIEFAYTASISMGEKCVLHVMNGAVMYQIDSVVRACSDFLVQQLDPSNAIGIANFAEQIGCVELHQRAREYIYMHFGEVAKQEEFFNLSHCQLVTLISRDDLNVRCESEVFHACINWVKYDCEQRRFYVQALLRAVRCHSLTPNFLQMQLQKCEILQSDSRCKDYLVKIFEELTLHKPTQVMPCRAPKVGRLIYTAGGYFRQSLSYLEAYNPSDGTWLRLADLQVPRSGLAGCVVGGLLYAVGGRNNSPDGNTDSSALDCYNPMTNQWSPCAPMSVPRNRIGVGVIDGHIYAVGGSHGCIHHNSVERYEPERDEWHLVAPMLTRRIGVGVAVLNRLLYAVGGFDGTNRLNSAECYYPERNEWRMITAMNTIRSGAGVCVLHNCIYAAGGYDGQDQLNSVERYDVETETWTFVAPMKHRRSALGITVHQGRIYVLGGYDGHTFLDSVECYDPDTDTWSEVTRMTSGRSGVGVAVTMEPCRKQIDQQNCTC
Assay: fluorescence polarisation; competition: unlabelled peptide in serial dilution against the protein domain (master mix at four times the KD) with its FITC-labelled probe peptide; 50 mM KPO4 or NaPO4 pH 7.5; Ki calculated from IC50
Where no end group is shown, it is not given here.
Please respond with reported pKi for every item in the list.
Numbers only, as −log10 of the molar value.

Provide reported pKi for each item, in the same order as listed.
1. Ac-PPLPPPPLPPAPSLPY-NH2 [ATF5 128-143 peptide]
2. GFDAVTGEFTGMPEQW-NH2 [PAK1 88-103 peptide]
3. Ac-YDEEKGEFLPIQPAQH-NH2 [NFE2L2 77-91 peptide with an extra N-terminal Y, T80K]
4. Ac-GIIDPSTGERFPVTDY-NH2 [PLEC 4457-4471 peptide with an extra C-terminal Y, wild type]
5. YDPVTGEWKSLAKLPE-NH2 [KLHL24 335-350 peptide]
6. Ac-YDEETGEFLPIQPAQH-NH2 [NFE2L2 77-91 peptide with an extra N-terminal Y, wild type]
7. IDPSTGERFPVTDAVN-NH2 [PLEC 4459-4474 peptide]

[2.83, 4.96, 3.21, 6.31, 4.72, 7.15, 5.82]

Provide reported pKi for each item, in the same order as listed.
1. Ac-YDEKTGEFLPIQPAQH-NH2 [NFE2L2 77-91 peptide with an extra N-terminal Y, E79K]
2. Ac-YMQHLQEQQQQQMHLQ-NH2 [TREF1 332-347 peptide]

1. 3.40
2. 3.79
